- tested on: human NMDA receptor GluN1-GluN2A (Homo sapiens, UniProt Q05586+Q12879)
- Construct: expressed in transfected cells; host or cells: CHO
- Sequence (Q12879 23-1464, other chains not shown): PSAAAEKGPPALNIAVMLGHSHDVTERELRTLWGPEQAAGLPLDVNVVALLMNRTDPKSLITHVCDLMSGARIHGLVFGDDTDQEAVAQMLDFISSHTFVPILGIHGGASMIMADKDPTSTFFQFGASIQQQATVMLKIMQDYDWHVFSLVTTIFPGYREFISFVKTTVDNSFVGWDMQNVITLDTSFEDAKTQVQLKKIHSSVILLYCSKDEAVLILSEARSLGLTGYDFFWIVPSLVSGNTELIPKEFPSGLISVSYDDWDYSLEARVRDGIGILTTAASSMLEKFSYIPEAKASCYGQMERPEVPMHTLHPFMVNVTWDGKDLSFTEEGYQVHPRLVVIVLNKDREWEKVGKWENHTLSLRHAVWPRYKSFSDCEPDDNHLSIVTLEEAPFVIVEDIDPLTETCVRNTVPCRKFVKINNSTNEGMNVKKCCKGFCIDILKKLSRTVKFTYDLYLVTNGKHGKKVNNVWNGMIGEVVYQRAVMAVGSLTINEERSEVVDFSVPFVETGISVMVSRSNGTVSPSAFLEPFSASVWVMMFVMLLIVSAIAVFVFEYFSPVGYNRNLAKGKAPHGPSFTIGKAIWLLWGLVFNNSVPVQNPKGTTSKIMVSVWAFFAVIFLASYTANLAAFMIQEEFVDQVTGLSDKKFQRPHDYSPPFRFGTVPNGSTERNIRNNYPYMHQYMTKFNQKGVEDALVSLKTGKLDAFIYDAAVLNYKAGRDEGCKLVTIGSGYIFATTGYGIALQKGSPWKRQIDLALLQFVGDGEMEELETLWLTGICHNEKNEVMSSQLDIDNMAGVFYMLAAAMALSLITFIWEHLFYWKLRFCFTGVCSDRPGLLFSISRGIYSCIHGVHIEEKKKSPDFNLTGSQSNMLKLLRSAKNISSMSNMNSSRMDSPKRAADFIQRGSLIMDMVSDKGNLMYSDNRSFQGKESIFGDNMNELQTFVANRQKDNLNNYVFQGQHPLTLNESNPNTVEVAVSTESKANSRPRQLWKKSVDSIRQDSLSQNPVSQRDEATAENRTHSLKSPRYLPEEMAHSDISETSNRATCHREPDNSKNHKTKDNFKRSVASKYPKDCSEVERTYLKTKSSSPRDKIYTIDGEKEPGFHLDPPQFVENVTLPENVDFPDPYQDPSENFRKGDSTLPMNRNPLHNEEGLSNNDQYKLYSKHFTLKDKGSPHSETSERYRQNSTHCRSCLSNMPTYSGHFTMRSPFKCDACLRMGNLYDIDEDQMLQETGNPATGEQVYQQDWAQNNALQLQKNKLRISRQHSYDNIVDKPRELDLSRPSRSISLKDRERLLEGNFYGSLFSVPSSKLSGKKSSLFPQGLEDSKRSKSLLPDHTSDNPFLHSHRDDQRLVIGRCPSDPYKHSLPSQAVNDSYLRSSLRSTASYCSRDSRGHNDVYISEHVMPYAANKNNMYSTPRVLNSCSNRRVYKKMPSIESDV
- assay remarks: FLIPR calcium assay, test item effect on L-glutamate CRC, GluN1-GluN2A-CHO
- Format: cell-based
- reported conditions: with test item 781 nM
Where a name gives a salt, the structure may show the parent alone.
The entries below are paired with their reported L-glutamate CRC LogEC50.
Number, no unit, nothing else.

COc1ccc2c(c1)[C@]13CCCC[C@@H]1[C@H](C2)N(C)CC3 [Dextromethorphan, hydrobromide monohydrate]    −6.4

State, for human NMDA receptor GluN1-GluN2A (Homo sapiens, UniProt Q05586+Q12879), measured L-glutamate CRC LogEC50 of the compound listed here: CC12CC3CC(C)(C1)CC(N)(C3)C2 [Memantine, memantine hydrochloride]
−6.3

State, for human NMDA receptor GluN1-GluN2A (Homo sapiens, UniProt Q05586+Q12879), measured L-glutamate CRC LogEC50 of the compound listed here: CNC1(c2ccccc2Cl)CCCCC1=O (racemic) [(±)-Ketamine, (±)-ketamine hydrochloride]
−6.4

State, for human NMDA receptor GluN1-GluN2A (Homo sapiens, UniProt Q05586+Q12879), measured L-glutamate CRC LogEC50 of the compound listed here: CCC(=O)C(C[C@H](C)N(C)C)(c1ccccc1)c1ccccc1
−6.6
